Tested on: MCF7
Procedure Text: Cytotoxicity against Homo sapiens (human) MCF7 cells assessed as cell viability at 1.56 ug/ml after 48 hr by MTT assay
Format: functional
Study Conditions: MCF7, 48 h, read-out: Activity
Measured viability at 1.56 µg/mL values are reported for all entries that follow.
State just the number; it will be interpreted in %.

# Molecule, viability at 1.56 µg/mL (%)
records = [
    ("N#CC1=C(N)Oc2c(ccc3ccc(/C=C/c4ccc(Br)cc4)nc23)C1c1ccc(Br)cc1 (stereo unspecified)", 61.1),
    ("N#CC1=C(N)Oc2c(ccc3ccc(/C=C/c4ccc(Cl)cc4)nc23)C1c1ccc(Cl)cc1 (stereo unspecified)", 86.6),
    ("CCOC(=O)C1=C(N)Oc2c(ccc3ccc(/C=C/c4ccc(Cl)cc4)nc23)C1c1ccc(Br)cc1 (stereo unspecified)", 80.9),
    ("N#CC1=C(N)Oc2c(ccc3ccc(/C=C/c4ccc(F)cc4)nc23)C1c1ccc(Br)cc1 (stereo unspecified)", 100),
    ("N#CC1=C(N)Oc2c(ccc3ccc(/C=C/c4ccc(Cl)cc4)nc23)C1c1ccc(Br)cc1 (stereo unspecified)", 98.5),
]

Enquiry: Query viability at 1.56 µg/mL on MCF7 for CCOC(=O)C1=C(N)Oc2c(ccc3ccc(/C=C/c4ccc(F)cc4)nc23)C1c1ccc(Br)cc1 (stereo unspecified)
Return: 99.3
